Measured growth inhibition by item
# assay-comment: inhibition of 3D7 malaria parasite growth – strain 3D7 (AID 2306);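 also: 0% = DMSO wells and 100% = chloroquine plus artemisinin control wells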
# settings: P. falciparum 3D7 erythrocytic growth, LDH absorbance, 72 h; at 2 µM; stronger effect = higher value
API: value field is a number in %; no unit string.

CC(=O)C1(c2ccccc2)CCN(CCC2(c3ccc(Cl)c(Cl)c3)CN(C(=O)C3CCCC3)CCO2)CC1 (stereo not drawn)	88
Cc1nc(-c2ccc(-c3ccc(C(=O)Nc4ccc5c(c4)C4(CCNCC4)CO5)cc3)c(C)c2)no1	90

Now let's try a different one.
Please report growth inhibition for the following compound: `Cc1ccc(C(=O)Nc2ccnc(N(C)C3CCN(Cc4cccc(O)c4)CC3)c2)cn1`
90

====

# assay-comment: sensitizers of A549 cells to miR-34 induction, primary screen, imaging, A549 dox-inducible miR-34, nuclei and caspase counts (AID 1347080)
# settings: A549 miR-34 inducible, Hoechst nuclei count, 48 h; measured here: total cells with miR-34 induction; stronger effect = lower value
Classify by cell count. Ranges: lower segment = under 6000, middle segment = from 6000 up to 9000, upper segment = 9000 and over

Examples with answers:
COc1cc(C(O)CN)ccc1O (centres undefined)	upper segment
C=CC[C@@]1(O)CC[C@H]2[C@@H]3CCC4=CC(=O)CCC4=C3C=C[C@@]21C	middle segment
Cc1sc2ccccc2c1CC1=NCCN1	upper segment
CCOC(=O)CN1C(=O)CC(C[C@@H](O)C2C[C@@H](C)C[C@H](C)C2=O)CC1=O (some centres undefined)	lower segment

In plain terms, what class is `COc1ccc(-n2nc(C(F)(F)F)cc2-c2ccc(Cl)cc2)cc1` ?
middle segment

Which band does `CO/C1=C\C(C)=C\[C@@H](C)[C@@H](O)[C@@H](C)C/C(C)=C/C=C/[C@H](OC)[C@@H]([C@@H](C)[C@@H](O)[C@H](C)[C@@]2(O)C[C@@H](O)[C@H](C)[C@@H](C(C)C)O2)OC1=O` fall in?
lower segment

Form: Item = CC[C@]1(O)CCC2C3CCC4=CCCCC4C3CC[C@@]21C (some centres undefined) ; Class = ?
lower segment

Dear colleague, I would appreciate it if you could identify the bin for C[C@]12CC(=CO)C(=O)CC1CCC1C2CC[C@@]2(C)C1CC[C@]2(C)O (some centres undefined) and reply at your convenience.
upper segment

// bin(item) where item = O=C1Nc2cc(Cl)c(Cl)cc2N2CCNCC12 (centres undefined)
middle segment

In plain terms, what class is `CCCCC/C=C\C/C=C\C/C=C\C/C=C\CCCC(=O)N[C@H](C)COP(=O)(O)O` ?
lower segment

Band of CC(C)CC(NP(=O)(O)O[C@@H]1O[C@@H](C)[C@H](O)[C@@H](O)[C@H]1O)C(=O)NC(Cc1c[nH]c2ccccc12)C(=O)O (some centres undefined) ?
upper segment

Exercise: read the entry `CN[C@@H]1C[C@H]2O[C@@](C)([C@@H]1OC)n1c3ccccc3c3c4c(c5c6ccccc6n2c5c31)C(=O)NC4` and state which class it falls under.
lower segment

Could you tell me which band `C=C(C)[C@@H]1CCC(C)=C[C@H]1c1c(OC)cc(CCCCC)cc1OC` belongs to?
lower segment

Categorize the following entry: `Clc1ccc(N2CC3CCC(C2)N3)nn1`
upper segment

Class for `O=C1C=CC(=O)c2c(O)cccc21` ?
lower segment

For `CC(C)C[C@H]1C(=O)N2CCC[C@H]2[C@]2(O)O[C@](NC(=O)[C@@H]3C=C4c5cccc6[nH]cc(c56)C[C@H]4N(C)C3)(C(C)C)C(=O)N12` , which cell count bin applies?
middle segment

Could you place `CCCCCCC(=O)CCCCCC/C=C/C[C@@H](O)[C@H](O)[C@@](N)(CO)C(=O)O` in its proper category? Many thanks.
lower segment

Entry `COc1cc2c(cc1O)C[C@H]1c3c(cc(O)c(OC)c3-2)CCN1C` belongs to which category?
middle segment

Into which bin does this compound go? `CC1(C)CC(O)CC(C)(C)N1O`
middle segment

Record `CCCCCCCCCCCC[N+](C)(C)CCOc1ccccc1` — which class?
middle segment

Please classify: CCOC(=O)CC(SP(=S)(OC)OC)C(=O)OCC (centres undefined)
middle segment

Which category fits this record: C[C@@H]1O[C@@H](O[C@H]2C[C@@H](O)[C@]3(CO)C4C(CC[C@]3(O)C2)[C@@]2(O)CC[C@H](C3=CC(=O)OC3)[C@@]2(C)C[C@H]4O)[C@H](O)[C@H](O)[C@H]1O (some centres undefined)
lower segment

Which category fits this record: COC(=O)C(c1ccccc1)C1CCCCN1 (centres undefined)
upper segment

The entry to classify is `CC(=O)[O][Hg][c]1ccccc1` ; which class holds it?
lower segment

====

# Test system: Aerobactin synthetase IucA (Klebsiella pneumoniae)
# assay-comment: IucA aerobactin synthetase inhibitors, biochemical, Tocris library, absorbance (AID 1345561);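 also: 100% = enzyme without compound and 0% = no enzyme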
# settings: purified IucA enzyme assay, absorbance (OD) read-out; stronger effect = lower value; concentration not given here
# reported remaining activity; entries follow
Provide only the numeric value, understood in %.

COc1cc2c(cc1O)C(CCc1ccc(Cl)cc1)N(C)CC2 (stereo not given)	109
C[C@H](Cc1ccc(OCC(=O)O)cc1)NC[C@H](O)c1cccc(Cl)c1	121
NP(N)(=O)NC(=O)c1ccc(F)cc1	91.8

# return remaining activity of O=C(Cc1ccc(Cl)c(Cl)c1)N1CCCCC1CN1CCCC1 (stereo not given) (system: Aerobactin synthetase IucA (Klebsiella pneumoniae))
106

Write down measured remaining activity (Aerobactin synthetase IucA (Klebsiella pneumoniae)) for this molecule. `C=C(C)[C@@H]1CCC(C)=C[C@H]1c1c(OC)cc(C)cc1OC`
106

====

# aggregation suppression score listing for each entry below
# assay-comment: suppressors of polyglutamine aggregation in yeast, 75Q-TubH (AID 1616)
# settings: S. cerevisiae 75Q-TubH polyglutamine aggregation suppression; stronger effect = higher value
// no unit string in output, number only

Below are worked cases with known answers.
CN(C)[C@@H]1C(=O)C(C(N)=O)=C(O)[C@@]2(O)C(=O)C3=C(O)c4c(O)ccc(Cl)c4[C@@](C)(O)[C@H]3C[C@@H]12	0.363
CC(=O)Nc1cc([As](=O)(O)O)ccc1O	1.35
COc1ccc2c3c1O[C@H]1[C@@H](O)C=CC4[C@@H](C2)N(C)CC[C@@]341 (stereo partly drawn)	1.22
CCCCCCCCCCCCCCCC[n+]1ccccc1	-0.00459
CC(N)Cc1ccccc1 (stereo not drawn)	0.923

Here's the next entry for you.
Identify the reported aggregation suppression score for the following entry. `C[C@H](N)[C@H](O)c1ccc(O)c(O)c1`
1.14

====

Each entry below carries its recorded remaining activity.
# Test system: Aerobactin synthetase IucA (Klebsiella pneumoniae, hypervirulent)
# assay-comment: IucA enzyme inhibition, biochemical, LOPAC library, absorbance readout (AID 1346212);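 also: 100% = no compound wells and 0% = no enzyme wells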
# settings: IucA enzyme assay, absorbance (OD) readout; stronger effect = lower value; concentration not given here
// return numeric value only (unit: %, not printed)

Look over these answered cases.
O=[N+]([O-])c1cccc2cn[nH]c12	114
CC(N)(Cc1ccc(O)cc1)C(=O)O (centres undefined)	106
C[N+](C)(C)CC(=O)O	106
CCCN(CCC)CCc1c[nH]c2ccc(C(N)=O)cc12	109
O=C(OCCN1CCOCC1)C1(c2ccccc2)CCCCC1	123
O=c1[nH]c2ccccc2n1C1CCN(CCCC(c2ccc(F)cc2)c2ccc(F)cc2)CC1	122
COC(=O)[C@@H](N)Cc1ccc(O)c(O)c1	107
CC(N=C(NC#N)Nc1ccncc1)C(C)(C)C (centres undefined)	92.7

Hello, please tell me recorded remaining activity for this one: `O=C(O)CN(CCOCCOCCN(CC(=O)O)CC(=O)O)CC(=O)O`
88.2

Recall and state the measured remaining activity for `N[C@@H](CCl)C(=O)O` .
104

====

# assay-comment: differential killing of epithelial or mesenchymal cells, primary screen, imaging, PC-3E GFP, TEM4-18 mCherry, co-culture (AID 1345086);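 also: normalised mesenchymal count divided by normalised epithelial count so high means epithelial killing; cells exposed to compound for 72 h before imaging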
# settings: imaging cell counts, at 1 µM, actives lie on both sides, counts scaled to control wells, 1 = unselective
Use 1 as the dividing line for red/green cell ratio (normalised), with the line itself on the Y side and lower values as N.

Previously resolved entries follow.
N#Cc1cc(I)c(O)c(I)c1	Y
COc1cc2c(cc1OC)[C@@]13CCN4CC5=CCOC6CC(=O)N2C1[C@H]6[C@H]5C[C@H]43 (some centres not stated)	N
Cc1cc(O)cc2oc(=O)c3c(O)cc(O)cc3c12	N

Reported red/green cell ratio (normalised) at or above 1? COc1cc([C@@H]2c3cc4c(cc3[C@H](OC(C)=O)C3COC(=O)[C@H]32)OCO4)cc(OC)c1OC (some centres not stated)
Y

# check: red/green cell ratio (normalised) of `Cc1ncc(C[n+]2csc(CCO)c2C)c(=O)[nH]1` is greater than or equal to 1
N

Threshold query (red/green cell ratio (normalised) >= 1) on `O=C(O)CF`
N

Data credit: PubChem BioAssay
